Measured values drawn from the NIST ThermoML archive (doi:10.1021/je049793l) for this set.

Answer each item with its documented viscosity.
ASSAY CONTEXT: 298.15 K; 101.3 kPa; Liquid
Answers are plain numbers, in mPa·s.

Examples with answers:
Cc1ccccc1C [1,2-dimethylbenzene]: 0.768
CCC(C)=O [butanone]: 0.376
Cc1ccc(C)cc1 [1,4-dimethylbenzene]: 0.609
CC(C)c1ccccc1 [isopropylbenzene]: 0.739

Next:
Identify viscosity associated with the compound Cc1cccc(C)c1 [1,3-dimethylbenzene]
0.587

====

ASSAY CONTEXT: 298.15 K; 101.3 kPa; Liquid
Kindly state mass density for each of the entries shown.
Numbers only, in kg/m3.

Example results:
CC(C)c1ccccc1: 857.1
Cc1ccccc1C: 875.2
Cc1ccc(C)cc1: 856.1
CCC(C)=O: 799.6

Tell me measured mass density for Cc1cccc(C)c1 please.
859.4

====

ASSAY CONTEXT: 298.15 K; 101.3 kPa; Liquid
Assignment: determine reported speed of sound for the given molecules.
Answers are plain numbers, in m/s.

Each of the following entries comes with a recorded value; kindly state speed of sound for each.
1. Cc1cccc(C)c1
2. CC(C)c1ccccc1
3. CCC(C)=O
4. Cc1ccccc1C
5. Cc1ccc(C)cc1

[1323, 1338, 1195, 1349, 1316]
